molecular target: V1 receptor (Rattus norvegicus, UniProt P30560); experiment: biochemical; type: binding
Sequence (P30560 whole entry): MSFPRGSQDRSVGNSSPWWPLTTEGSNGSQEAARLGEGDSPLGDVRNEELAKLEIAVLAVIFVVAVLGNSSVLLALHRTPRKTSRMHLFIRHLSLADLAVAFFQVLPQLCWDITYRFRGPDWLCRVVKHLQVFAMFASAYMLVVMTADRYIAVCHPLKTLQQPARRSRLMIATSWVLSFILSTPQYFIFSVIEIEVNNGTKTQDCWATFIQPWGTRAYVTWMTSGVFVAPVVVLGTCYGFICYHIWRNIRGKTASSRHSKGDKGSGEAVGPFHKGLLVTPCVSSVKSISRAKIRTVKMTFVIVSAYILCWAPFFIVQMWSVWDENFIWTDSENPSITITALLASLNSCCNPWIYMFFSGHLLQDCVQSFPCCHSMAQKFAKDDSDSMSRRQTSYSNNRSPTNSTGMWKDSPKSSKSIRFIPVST
Mark each entry YES if its IC50 sits below 100 nM, and NO for all others.

Use these answered entries as a reference point.
compound	discrete_label
CN1CCN(CC(=O)NCCCCCOc2ccc(C(=O)N3CCC(N4C(=O)CCc5ccccc54)CC3)cc2)CC1 [Example 254]	YES
O=C(c1ccc(OCCCCCN2CCN(c3ncccn3)CC2)cc1)N1CCC(N2C(=O)CCc3ccccc32)CC1 [Example 233]	NO
COc1cccc(CNCC(O)CCCCOc2ccc(C(=O)N3CCC(N4C(=O)CCc5ccccc54)CC3)cc2)c1 (stereo not drawn) [Example 298]	YES
CCN(C)c1cc(OC)ccc1C(=O)N1CCC(N2C(=O)CCc3ccccc32)CC1 [Example 58]	NO
O=C(CNCc1ccccc1)NCCCCCOc1ccc(C(=O)N2CCC(N3C(=O)CCc4ccccc43)CC2)cc1 [Example 256]	NO

[in] Is the reported IC50 for CC(=O)OC1CCC(C(=O)NCCCCCOc2ccc(C(=O)N3CCC(N4C(=O)CCc5ccccc54)CC3)cc2)CC1OC(C)=O (stereo not drawn) [Example 261] strictly below 100 nM?
[out] NO

[in] Param item: O=C(c1cnc2ccccc2c1)N1CCC(N2C(=O)CCc3ccccc32)CC1 [Example 117]
[out] NO

[in] And COc1ccc(C(=O)N2CCC(N3C(=O)CCc4ccccc43)CC2)c(NC(C)=O)c1 [Example 104] ?
[out] NO

[in] Input O=C(c1ccc(OCCCCC(O)CN2CCC(Cc3ccccc3)CC2)cc1)N1CCC(N2C(=O)CCc3ccccc32)CC1 (stereo not drawn) [Example 304]
[out] YES

[in] Thanks! And CN1CCN(C(=O)CCCCCOc2ccc(C(=O)N3CCC(N4C(=O)CCc5ccccc54)CC3)cc2)CC1 [Example 272] ?
[out] YES

* * *

biological target: V1 receptor (Rattus norvegicus, UniProt P30560); test: biochemical; format: binding
recorded_metric: IC50 (nM)
One number for each entry, in nM.

Here is how some molecules turned out for IC50.
molecule	IC50 (nM)
CCOc1ccc(C(=O)N2CCC(N3C(=O)CCc4cc(F)c(F)cc43)CC2)c(OC)c1	200
CCN(CC)CC(O)CCCCCCOc1ccc(C(=O)N2CCC(N3C(=O)CCc4ccccc43)CC2)cc1 (centres unmarked)	39
CCN(CC)CC(O)CCCCOc1ccc(C(=O)N2CCC(N3C(=O)CCc4c(F)cc(F)cc43)CC2)c(OC)c1 (centres unmarked)	8
COCc1ccc(C(=O)N2CCC(N3C(=O)CCc4ccccc43)CC2)cc1	750
CC(=O)OCCCOc1ccc(C(=O)N2CCC(N3C(=O)CCc4ccccc43)CC2)cc1	450
O=C1CCc2ccccc2N1C1CCN(C(=O)C23CC4CC(CC(C4)C2)C3)CC1	500
CCNC(=O)NCCCOc1ccc(C(=O)N2CCC(N3C(=O)CCc4ccccc43)CC2)cc1	320
O=C(c1ccc(OCCCCCCN2CCCC2)cc1)N1CCC(N2C(=O)CCc3ccccc32)CC1	58

For each entry beneath this line, provide reported IC50.
1. CN(C)c1ccc(C(=O)N2CCC(N3C(=O)CCc4ccccc43)CC2)c(N(C)C)c1
2. COc1ccc(C(=O)N2CCC(N3C(=O)CCc4ccccc43)CC2)c(OCCO)c1
3. N=C(N)CCCOc1ccc(C(=O)N2CCC(N3C(=O)CCc4ccccc43)CC2)cc1
4. COc1cc(SC)ccc1C(=O)N1CCC(N2C(=O)CCc3ccccc32)CC1
5. CCOc1ccc(C(=O)N2CCC(N3C(=O)CCc4c(C)cccc43)CC2)c(OC)c1
6. O=C(c1ccc(Oc2ccccc2)cc1)N1CCC(N2C(=O)CCc3ccccc32)CC1

[out]
[400, 360, 470, 80, 41, 200]

* * *

biological target: UniProt P30560; test: biochemical; assay type: binding
Provide the recorded IC50 for the entries that follow.
Give bare numbers, in nM.

// solved cases for IC50 follow
compound	unit	endpoint_result
C=CCN(C)c1ccc(C(=O)N2CCC(N3C(=O)CCc4ccccc43)CC2)cc1 [Example 90]	nM	1100
CC(=O)Nc1ccc(S(=O)(=O)CCCCCOc2ccc(C(=O)N3CCC(N4C(=O)CCc5ccccc54)CC3)cc2)cc1 [Example 289]	nM	100

// for each compound below, give its IC50
1. COc1ccc(C(=O)N2CCC(N3C(=O)CCc4ccccc43)CC2)c(N(C)C)c1 [Example 55]
2. O=C(NCCCCCOc1ccc(C(=O)N2CCC(N3C(=O)CCc4ccccc43)CC2)cc1)C1CCC(O)C(O)C1 (centres unmarked) [Example 260]
3. CCOc1ccc(C(=O)N2CCC(N3C(=O)CCc4ccccc43)CC2)c(OC)c1 [Example 52]

[out]
[200, 150, 80]

List reported IC50 for each of these compounds:
1. C=CC[N+](C)([O-])CCCCCOc1ccc(C(=O)N2CCC(N3C(=O)CCc4ccccc43)CC2)cc1 (centres unmarked) [Example 246]
2. COc1cc(SC)ccc1C(=O)N1CCC(N2C(=O)CCc3ccc(F)cc32)CC1 [Example 80]
3. CCNc1cc(OC)ccc1C(=O)N1CCC(N2C(=O)CCc3ccccc32)CC1 [Example 56]

[out]
290
80
330

* * *

Provide the recorded IC50 for the entries that follow.
target: V1 receptor (Rattus norvegicus, UniProt P30560); test: biochemical; type: binding; conditions: read-out: IC50
Answers are plain numbers, in nM.

Worked cases, answers included:
mol	measured_target	recorded_metric	endpoint_result
CCOc1ccc(C(=O)N2CCC(n3c(=O)ccc4ccc(F)cc43)CC2)c(OC)c1	V1 receptor (Rattus norvegicus, UniProt P30560)	IC50	160
CCOc1ccc(C(=O)N2CCC(n3c(=O)ccc4ccccc43)CC2)c(OC)c1	V1 receptor (Rattus norvegicus, UniProt P30560)	IC50	330

[in] Give its IC50 value. Item: `CCOc1ccc(C(=O)N2CCC(n3c(=O)ccc4c(F)cc(F)cc43)CC2)c(OC)c1`
[out] 320

* * *

target: UniProt P30560; experiment: biochemical; assay type: binding; conditions: [H]3-Arg-vasopressin 2×10^-10 M, rat liver plasma membrane, 37° C., 10 minutes, pH 8.0
For each of the molecules below, state its pIC50.
Numbers only, as −log10 of the molar value.

molecule	endpoint_result
O=C(c1ccc(OCCCCCn2ccnc2)cc1)N1CCC(N2C(=O)CCc3ccccc32)CC1 [Example 236]	6.59
CN(CC(O)CCCCOc1ccc(C(=O)N2CCC(N3C(=O)CCc4ccccc43)CC2)cc1)CC(O)c1ccccc1 (stereo not shown) [Example 219]	7.22

Hi, could you look up pIC50 for each item in my list?
1. O=C(c1ccc(OCCCCCn2cncn2)cc1)N1CCC(N2C(=O)CCc3ccccc32)CC1 [Example 237]
2. COc1ccc(C(=O)N2CCC(N3C(=O)CCc4ccccc43)C(C)C2)c(OC)c1 (stereo not shown) [Example 118]

[out]
1: 7.12; 2: 6.59

* * *

Provide the recorded pIC50 for the entries that follow.
target: V1 receptor (Rattus norvegicus, UniProt P30560); experiment: biochemical; type: binding
Answers are plain numbers, as −log10 of the molar value.

Worked cases, pIC50 given:
compound	pIC50
CN(CCO)CCCCCOc1ccc(C(=O)N2CCC(N3C(=O)CCc4ccccc43)CC2)cc1	7.47
CCOC(=O)CN(C)c1cc(OC)ccc1C(=O)N1CCC(N2C(=O)CCc3ccccc32)CC1	5.96
COC(=O)[C@@H]1CCCN1CCCCCOc1ccc(C(=O)N2CCC(N3C(=O)CCc4ccccc43)CC2)cc1	6.82
O=C(c1ccc(OCCCC[S+]([O-])c2nc3ccccc3[nH]2)cc1)N1CCC(N2C(=O)CCc3ccccc32)CC1 (stereo not drawn)	6.46
O=C(c1ccc(OCCCN2CCN(c3ccccc3)CC2)cc1)N1CCC(N2C(=O)CCc3ccccc32)CC1	6.19

Dear colleague, could you please provide pIC50 for the compounds listed below?
1. COc1ccc(C(=O)N2CCC(N3C(=O)CCc4ccccc43)CC2)cc1[N+](=O)[O-]
2. O=C(c1ccc(CCCCO)cc1)N1CCC(N2C(=O)CCc3ccccc32)CC1
3. O=C(c1ccc(OCCCCCN2CCCC2)cc1OCCCCCN1CCCC1)N1CCC(N2C(=O)CCc3ccccc32)CC1
4. Cn1ccnc1SCCCCCOc1ccc(C(=O)N2CCC(N3C(=O)CCc4ccccc43)CC2)cc1
5. O=C(c1ccc(OCCCCC(O)CN2CCCCC2)cc1)N1CCC(N2C(=O)CCc3ccccc32)CC1 (stereo not drawn)

[out]
1: 5.85; 2: 6.46; 3: 7.01; 4: 6.96; 5: 7.42

Consider the following items and state reported pIC50 for each.
1. CCN(CC)CC(O)CCCCOc1ccc(C(=O)N2CCC(N3C(=O)CCc4ccccc43)CC2)cc1 (stereo not drawn)
2. NC(=O)CNC(=O)CCCCCCCOc1ccc(C(=O)N2CCC(N3C(=O)CCc4ccccc43)CC2)cc1
3. CCN(CC)CC(CCCCOc1ccc(C(=O)N2CCC(N3C(=O)CCc4ccccc43)CC2)cc1)OC(C)=O (stereo not drawn)
4. O=C(CN1CCOCC1)NCCCCCOc1ccc(C(=O)N2CCC(N3C(=O)CCc4ccccc43)CC2)cc1
5. CCN(CC)CCCCCCOc1ccc(C(=O)N2CCC(N3C(=O)CCc4c(C)cccc43)CC2)cc1

[out]
1. 7.66
2. 6.82
3. 7.19
4. 6.74
5. 7.64
